The molecules below each have a reported IC50 tested on UniProtKB P42336; the values come from various publications.

Entry CS(=O)(=O)CCN1CCC(Nc2cnc3ccc(-c4ccc5oc(N)nc5c4)cc3n2)CC1 ; IC50 = < 100 nM

Entry Cc1nc2ccc(-c3ccc4c(c3)CN(C(=O)N3CCOCC3)CCO4)cc2[nH]1 ; IC50 = 500 to 1000 nM

Entry NC(=O)c1ccc(Nc2nc(-c3cccc([N+](=O)[O-])c3)nc3c2cnn3C2CCN(Cc3ccccc3)CC2)cc1 ; IC50 = 2810 nM

Entry CN(C)C(=O)C1CCN(c2ccnc3c2c(/C=C2\Oc4ccc(NC(=O)Nc5nc6ccccc6n5C)cc4C2=O)cn3C)CC1 ; IC50 = 1250 nM

Entry Cc1cccnc1-n1c(Cn2nc(-c3cc(O)cc(F)c3)c3c(N)ncnc32)cc2ccccc2c1=O ; IC50 = > 10000 nM

Entry COc1ncc(-c2cnc3[nH]cc(C(=O)c4c(F)ccc(NS(=O)(=O)c5cccc(F)c5)c4F)c3c2)cn1 ; IC50 = ≤ 10000 nM

Entry Cc1nc2ccc(-c3ccc4c(c3)CN(C(=O)N3CCC(C)(O)CC3)CCO4)cc2[nH]1 ; IC50 = 500 to 1000 nM
